Readings of IC50 for the listed compounds
# TARGET_ENTITY: CutC (Oleidesulfovibrio alaskensis)
# Sequence (Q30W70 whole entry): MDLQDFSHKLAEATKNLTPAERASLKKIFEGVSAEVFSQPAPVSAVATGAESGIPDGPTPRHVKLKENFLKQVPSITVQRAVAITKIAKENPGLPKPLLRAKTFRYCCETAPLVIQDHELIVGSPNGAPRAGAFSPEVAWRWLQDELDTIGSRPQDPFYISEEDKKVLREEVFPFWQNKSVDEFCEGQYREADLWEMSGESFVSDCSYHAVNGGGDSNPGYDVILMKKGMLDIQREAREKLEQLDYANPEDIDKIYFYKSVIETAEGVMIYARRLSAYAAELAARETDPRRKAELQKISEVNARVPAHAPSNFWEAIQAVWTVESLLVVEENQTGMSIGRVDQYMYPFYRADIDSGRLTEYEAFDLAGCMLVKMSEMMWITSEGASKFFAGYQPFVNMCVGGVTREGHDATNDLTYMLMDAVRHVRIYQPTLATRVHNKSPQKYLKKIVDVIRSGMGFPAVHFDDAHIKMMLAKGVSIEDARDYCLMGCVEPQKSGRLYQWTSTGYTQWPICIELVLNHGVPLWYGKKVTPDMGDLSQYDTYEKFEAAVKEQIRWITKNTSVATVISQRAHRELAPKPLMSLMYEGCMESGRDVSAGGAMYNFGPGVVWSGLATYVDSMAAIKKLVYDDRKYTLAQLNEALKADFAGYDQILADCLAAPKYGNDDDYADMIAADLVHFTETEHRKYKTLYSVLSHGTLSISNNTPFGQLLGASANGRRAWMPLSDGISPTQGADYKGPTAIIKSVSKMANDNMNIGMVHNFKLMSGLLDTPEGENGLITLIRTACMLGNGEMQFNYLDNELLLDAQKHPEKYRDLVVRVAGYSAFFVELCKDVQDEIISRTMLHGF
# ASSAY: biochemical
# Format: biochemical
# CONDITION_PARAMETERS: read-out: IC50 CutC
Write the answer as a number in µM, unit excluded.

COMPOUND	QUANTITATIVE_RESULT
CC1=CC(O)CN(C)C1 (stereo not drawn) [drawing 186]	422
OC1C=CCN(Cc2ccccc2)C1 (stereo not drawn) [drawing 190]	100
OC1C=CCCC1 (stereo not drawn) [drawing 198]	709
CN1CCCC(O)CC1 (stereo not drawn) [drawing 180]	2600
CN1CCC(O)C1 (stereo not drawn) [drawing 176]	844
C[N+]1(C)CC=CC(O)C1 (stereo not drawn) [drawing 185]	7

Q. Which IC50 value belongs to CCCN1CC=CC(O)C1 (stereo not drawn) [drawing 187] ?
A. 141

Q. IC50 lookup needed for CN1CCC(O)CC1 [drawing 179] , thanks.
A. 7010

Q. Dear colleague, I am looking for the recorded IC50 of the following compound: OC1C=CCOC1 (stereo not drawn) [drawing 199]
A. 2890

* * *

# Tested on: E. coli MS 200-1
# ASSAY: Inhibition of TMA production in whole cells (LC-MS/MS assay for choline TMA-lyase activity, d9-TMA from d9-choline)
# Format: cell-based
# CONDITION_PARAMETERS: Table 3; TMA generation, 1 mM choline-d9, anaerobic, 3.5 h, 37° C.; read-out: EC50 against E. coli MS200-1
pEC50 reference
Remember, pEC50 is on a log scale: it is -log10 of the molar concentration.

Look over these answered cases.
COMPOUND	pEC50
CN1CC=CC(O)C1 (centres unmarked) [drawing 110]	5.00
CN1CC=C[C@H](O)C1 [drawing 112]	5.00
CN1CC=C[C@@H](O)C1 [drawing 113]	4.51
CN1CCCC(=O)C1 [drawing 107]	1.57

Now for another entry.
Q. Endpoint output: pEC50 of [2H]C1(O)C=CCN(C)C1 (centres unmarked) . Value?
A. 4.52

* * *

# TARGET_ENTITY: CutC (Oleidesulfovibrio alaskensis)
# ASSAY: biochemical
# Format: biochemical
This listing pairs compounds with measured pIC50.
Recall that pIC50 is obtained by taking minus log10 of the concentration measured in molar.

COMPOUND	QUANTITATIVE_RESULT
CC(C)N1CC=CC(O)C1 (centres unmarked) [drawing 191]	3.96

Q. // lookup pIC50 for OC1C=CCN(C2CCC2)C1 (centres unmarked) [drawing 192]
A. 3.69

Q. Any idea what pIC50 was measured for OC1C=CCN(C2CCCCC2)C1 (centres unmarked) [drawing 196] ?
A. 4.20

Q. What value of measured pIC50 is listed for C=CC(O)CN(C)C (centres unmarked) [drawing 201] ?
A. 4.64

Q. Fill in the blank: the reported pIC50 of OC1C=CCN(CC2CC2)C1 (centres unmarked) [drawing 188] is ____.
A. 4.12

Q. // lookup pIC50 for OC1C=CCN(CC2CCCCC2)C1 (centres unmarked) [drawing 189]
A. 4.62

Q. Please report the recorded pIC50 for CN1CCCC1CO (centres unmarked) [drawing 200] .
A. 3.29

Q. What does the record list as pIC50 for OC1C=CCN(C2CCCCCC2)C1 (centres unmarked) [drawing 197] ?
A. 4.85
